# System: Klebsiella aerogenes DSM 30053
# protocol_details: fold change of Putrescine concentration vs plate DMSO controls (fold change (ratio)); higher = more amine produced, active = hit call of the paper (significant change in both replicates, either direction)
# condition_details: incubation time: 27 h, anaerobic, 37 °C
Structures can show the parent of a compound that is named as a salt.
measured_attribute: fold change of Putrescine concentration

molecule	target_or_test_system	measured_attribute	observed_measurement
O=C(CO)[C@@H](O)[C@@H](O)[C@H](O)CO [D-Tagatose] (50 µM)	Klebsiella aerogenes DSM 30053	fold change of Putrescine concentration	1.02
O=C(O)CNC(=O)c1ccccc1 [Hippuric acid] (20 µM)	Klebsiella aerogenes DSM 30053	fold change of Putrescine concentration	0.997
Cn1c([N+](=O)[O-])cnc1COC(N)=O [Ronidazole] (20 µM)	Klebsiella aerogenes DSM 30053	fold change of Putrescine concentration	0.97
O=C(O)[C@H]1/C(=C/CO)O[C@@H]2CC(=O)N21 [Clavulanate potassium salt] (20 µM)	Klebsiella aerogenes DSM 30053	fold change of Putrescine concentration	1
CC(C(=O)O)c1ccc(C(=O)c2cccs2)cc1 (stereo unspecified) [Suprofen] (20 µM)	Klebsiella aerogenes DSM 30053	fold change of Putrescine concentration	0.995
CCCCOc1ccc(CC(=O)NO)cc1 [Bufexamac] (20 µM)	Klebsiella aerogenes DSM 30053	fold change of Putrescine concentration	0.959
C[C@]12C=CC(=O)C=C1CC[C@@H]1[C@@H]2C(=O)C[C@@]2(C)[C@H]1CC[C@]2(O)C(=O)CO [Prednisone] (20 µM)	Klebsiella aerogenes DSM 30053	fold change of Putrescine concentration	0.941
NC(=O)N1c2ccccc2CC(=O)c2ccccc21 [Oxcarbazepine] (20 µM)	Klebsiella aerogenes DSM 30053	fold change of Putrescine concentration	1.01
Oc1c(Cl)cc(Cl)cc1Sc1cc(Cl)cc(Cl)c1O [Bithionol] (20 µM)	Klebsiella aerogenes DSM 30053	fold change of Putrescine concentration	1.02
Cc1ccc(S(=O)(=O)NC(=O)NN2CC3CCCC3C2)cc1 (stereo unspecified) [Gliclazide] (20 µM)	Klebsiella aerogenes DSM 30053	fold change of Putrescine concentration	1
Cc1cccc(C)c1OCC(C)N (stereo unspecified) [Mexiletine hydrochloride] (20 µM)	Klebsiella aerogenes DSM 30053	fold change of Putrescine concentration	0.998
C[C@H]1C[C@H]2[C@@H]3CCC4=CC(=O)C=C[C@]4(C)[C@@]3(F)[C@@H](O)C[C@]2(C)[C@@]1(O)C(=O)CO [Betamethasone] (20 µM)	Klebsiella aerogenes DSM 30053	fold change of Putrescine concentration	1.01
CCCNC(=O)NS(=O)(=O)c1ccc(Cl)cc1 [Chlorpropamide] (20 µM)	Klebsiella aerogenes DSM 30053	fold change of Putrescine concentration	1.03
CCCCN1CCCCC1C(=O)Nc1c(C)cccc1C (stereo unspecified) [Bupivacaine hydrochloride] (20 µM)	Klebsiella aerogenes DSM 30053	fold change of Putrescine concentration	0.995
COC(=O)C1=C(C)NC(C)=C(C(=O)OC2CCCN(Cc3ccccc3)C2)C1c1cccc([N+](=O)[O-])c1 (stereo unspecified) [Benidipine hydrochloride] (20 µM)	Klebsiella aerogenes DSM 30053	fold change of Putrescine concentration	1.02
CO[C@H]1C[C@H](O[C@H]2[C@H](C)[C@@H](O[C@@H]3O[C@H](C)C[C@H](N(C)C)[C@H]3OC(C)=O)[C@@H](C)C[C@@]3(CO3)C(=O)[C@H](C)[C@@H](OC(C)=O)[C@@H](C)[C@@H](C)OC(=O)[C@@H]2C)O[C@@H](C)[C@@H]1OC(C)=O [Troleandomycin] (20 µM)	Klebsiella aerogenes DSM 30053	fold change of Putrescine concentration	0.987
CCCN[C@H]1CCc2nc(N)sc2C1 [Pramipexole dihydrochloride] (20 µM)	Klebsiella aerogenes DSM 30053	fold change of Putrescine concentration	1.05
OCCN1C[C@H](O)[C@@H](O)[C@H](O)[C@H]1CO [Miglitol] (20 µM)	Klebsiella aerogenes DSM 30053	fold change of Putrescine concentration	1.01
COc1ccc(C[C@@H]2c3cc(OC)c(OC)cc3CC[N@+]2(C)CCC(=O)OCCCCCOC(=O)CC[N@@+]2(C)CCc3cc(OC)c(OC)cc3[C@H]2Cc2ccc(OC)c(OC)c2)cc1OC [Cisatracurium besylate] (20 µM)	Klebsiella aerogenes DSM 30053	fold change of Putrescine concentration	0.929
COC1=CC(=O)C[C@@H](C)[C@]12Oc1c(Cl)c(OC)cc(OC)c1C2=O [Griseofulvin] (20 µM)	Klebsiella aerogenes DSM 30053	fold change of Putrescine concentration	0.989
C[C@H](CCc1ccccc1)NC[C@H](O)c1ccc(O)c(C(N)=O)c1 [Dilevalol] (20 µM)	Klebsiella aerogenes DSM 30053	fold change of Putrescine concentration	1.01
Cc1nc2n(c(=O)c1CCN1CCC(c3noc4cc(F)ccc34)CC1)CCCC2 [Risperidone] (20 µM)	Klebsiella aerogenes DSM 30053	fold change of Putrescine concentration	1.05
CCc1ccc(CCOc2ccc(CC3SC(=O)NC3=O)cc2)nc1 (stereo unspecified) [Pioglitazone] (20 µM)	Klebsiella aerogenes DSM 30053	fold change of Putrescine concentration	1.01
OCC1(O)OC[C@@H](O)[C@@H](O)[C@H]1O (stereo partly specified) [Psicose] (50 µM)	Klebsiella aerogenes DSM 30053	fold change of Putrescine concentration	1.04
CC(C)COC(=O)OCN1C(=O)CN(CCN2CC(=O)N(COC(=O)OCC(C)C)C(=O)C2)CC1=O [Sobuzoxane] (20 µM)	Klebsiella aerogenes DSM 30053	fold change of Putrescine concentration	0.996
CN(CCCN1c2ccccc2CCc2ccccc21)CC(=O)c1ccc(Cl)cc1 [Lofepramine] (20 µM)	Klebsiella aerogenes DSM 30053	fold change of Putrescine concentration	1.03
CCCc1cc(=O)[nH]c(=S)[nH]1 [Propylthiouracil] (20 µM)	Klebsiella aerogenes DSM 30053	fold change of Putrescine concentration	1.01
S=C([S-])NCCNC(=S)[S-].S=C([S-])NCCNC(=S)[S-].[Mn+2].[Zn+2] (20 µM)	Klebsiella aerogenes DSM 30053	fold change of Putrescine concentration	0.852
CC(=O)Oc1ccccc1C(=O)O [Acetylsalicylic acid] (20 µM)	Klebsiella aerogenes DSM 30053	fold change of Putrescine concentration	0.998
CC1(C)NC(=O)N(c2ccc([N+](=O)[O-])c(C(F)(F)F)c2)C1=O [Nilutamide] (20 µM)	Klebsiella aerogenes DSM 30053	fold change of Putrescine concentration	1.01
O=C(O)c1cccnc1Nc1cccc(C(F)(F)F)c1 [Niflumic acid] (20 µM)	Klebsiella aerogenes DSM 30053	fold change of Putrescine concentration	1.01

Measured values drawn from the supplement of paper PMC12494721 for this set.
